Data origin: the supplement of paper PMC9262897

List of growth values.
# System: E. coli TESEC Mtb Alr
# test_details: growth (OD600 after 10 h); higher = more growth (less inhibition)
# setup_conditions: arabinose 10000000 nM; compound 0.1 mM; raw OD600 reference: median of DMSO wells 0.146, cell-free background 0.041

molecule	assayed_target	growth
CC(=O)OCC(=O)[C@H]1CC[C@H]2[C@@H]3CC[C@H]4C[C@H](O)CC[C@]4(C)[C@H]3C(=O)C[C@]12C [Alfadolone acetate]	E. coli TESEC Mtb Alr	0.109
C[C@]12CC[C@@H](O)C[C@H]1CC[C@@H]1[C@@H]2CC[C@]2(C)C(=O)CC[C@@H]12 [3-alpha-Hydroxy-5-beta-androstan-17-one]	E. coli TESEC Mtb Alr	0.0824
O=c1[nH]c2ccccc2n1C1CCN(CCCC(c2ccc(F)cc2)c2ccc(F)cc2)CC1 [Pimozide]	E. coli TESEC Mtb Alr	0.142
CC1C=CC=CCCC=CC=CC=CC=CC(OC2OC(C)C(O)C(N)C2O)CC2OC(O)(CC(O)C(O)CCC(O)CC(O)CC(O)CC(=O)OC(C)C(C)C1O)CC(O)C2C(=O)O (configuration not stated) [Nystatine]	E. coli TESEC Mtb Alr	0.188
C#C[C@]1(O)CC[C@H]2[C@@H]3CCC4=CC(=O)CC[C@]4(C)[C@H]3CC[C@@]21C [Ethisterone]	E. coli TESEC Mtb Alr	0.138
OC(c1ccccc1)(c1ccccc1)C1CCNCC1 [Azacyclonol]	E. coli TESEC Mtb Alr	0.136
CC(=O)NC1CCSC1=O (racemic) [N-Acetyl-DL-homocysteine Thiolactone]	E. coli TESEC Mtb Alr	0.144

* * *

# Tested on: E. coli TESEC Mtb Alr
# test_details: growth (OD600 after 10 h); higher = more growth (less inhibition)
# setup_conditions: arabinose 100000 nM; compound 0.1 mM; raw OD600 reference: median of DMSO wells 0.201, cell-free background 0.041
Structures can show the parent of a compound that is named as a salt.

molecule	growth
CC(C)C[C@H](CN)CC(=O)O [Pregabalin]	0.178
CCCCCC[C@H]1C(=O)O[C@H](C)[C@H](NC(=O)c2cccc(NC=O)c2O)C(=O)O[C@@H](C)[C@@H]1OC(=O)CC(C)C [Antimycin A]	0.249
CC(C)[N+](C)(CCC(C(N)=O)(c1ccccc1)c1ccccc1)C(C)C [Isopropamide iodide]	0.199
CN1[C@@H]2CC[C@H]1C[C@@H](OC1c3ccccc3CCc3ccccc31)C2 [Deptropine citrate]	0.043
CCCC[N+]1(C)[C@@H]2CC(OC(=O)[C@H](CO)c3ccccc3)C[C@H]1[C@@H]1O[C@@H]12 (stereo not given in full) [Butylscopolammonium (n-) bromide]	0.189
C[C@@]12N[C@@H](Cc3ccccc31)c1ccccc12 [(-)-MK 801 hydrogen maleate]	0.138
CCn1cc(C(=O)O)c(=O)c2cc3c(cc21)OCO3 [Oxolinic acid]	0.0646
C[N+]1([O-])[C@@H]2C[C@@H](OC(=O)[C@H](CO)c3ccccc3)C[C@H]1[C@@H]1O[C@@H]12 (stereo not given in full) [Scopolamin-N-oxide hydrobromide]	0.24
COc1cc2c(c(OC)c1OC)-c1ccc(OC)c(=O)cc1[C@@H](NC(C)=O)CC2 [Colchicine]	0.204
Oc1ccc2c3c1O[C@H]1[C@@H](O)CC[C@@]4(O)[C@@H](C2)N(CC2CCC2)CC[C@]314 [Nalbuphine hydrochloride]	0.183
C#C[C@]1(O)CC[C@H]2[C@@H]3CCC4=CC(=O)CCC4=C3C=C[C@@]21CC [Gestrinone]	0.173
CC(CCc1ccccc1)NC(C)C(O)c1ccc(O)cc1 (stereo not given) [Nylidrin]	0.167
NCC1(CC(=O)O)CCCCC1 [Gabapentin]	0.215
COc1ccc(OC)c(C(O)C(C)N)c1 (stereo not given) [Methoxamine hydrochloride]	0.212
CN(C)C(=O)Oc1ccc[n+](C)c1 [Pyridostigmine iodide]	0.253
